Cited source: patent US20220153732A1

system: PD1-ss+10aa/Gaussia Luciferase; experiment: Dox-Induced PD1-ss-Gluc Assay; assay type: cell-based; conditions: 24 hr doxycycline induction, 293FRT/TO cells, Gaussia luciferase signal; read-out: 24 hr Dox Inducible PD1ssGluc 293FRT/TO: Mean IC50
PROPERTY_NAME: log10 IC50 (log10 of the value in µM)

# COMPOUND, log10 IC50
data = [
    ("COc1ccc(/C=C/c2csc(NC(=O)c3cccn3Cc3ccncc3)n2)nc1 [Compound A269]", -1.89),
    ("O=C(Nc1nc(Cc2ccccc2)cs1)c1cccn1CCCc1cccnc1 [Compound A187]", 1.02),
    ("CC(C)OC(C)(C)c1csc(NC(=O)c2cccn2Cc2ccc([N+](=O)[O-])cc2)n1 [Compound A53]", 0.14),
    ("CC(C)(OCC(F)(F)F)c1csc(NC(=O)c2cccn2Cc2ccncc2)n1 [Compound A15]", -0.77),
    ("CC(C)OC(C)(C)c1csc(NC(=O)c2cccn2Cc2ccnc3ccccc23)n1 [Compound A90]", 1.00),
]

====

Listing of entries alongside the reported pIC50.
system: IL-2-FL/Gaussia Luciferase; experiment: Dox Induced IL2-FL-Gluc Assay; assay type: cell-based; conditions: 24 hr doxycycline induction, 293FRT/TO cells, Gaussia luciferase signal; read-out: 24 hr Dox Inducible IL2FLGIuc 293FRT/TO: Mean IC50
pIC50: −log10 of the molar value.

# COMPOUND, LT_GT_EQ, pIC50
rows = [
    ("O=C(Nc1ncc(CCO)s1)c1cccn1Cc1ccncc1", "<", 4.60),
    ("CC(C)(C)c1csc(NC(=O)c2cccn2Cc2ccncc2Cl)n1", "=", 5.51),
    ("O=C(Nc1nc(/C=C/c2ccc(F)cc2)cs1)c1cccn1Cc1ccncc1", "=", 6.20),
    ("COc1cc(Cn2cccc2C(=O)Nc2nc(C(C)(C)OC(C)C)cs2)ccn1", "<", 4.60),
    ("CCc1nc(NC(=O)c2cccn2Cc2cccnc2)sc1C", "<", 4.60),
    ("Cc1ccc2nc(NC(=O)c3cccn3Cc3ccncc3)sc2c1", "=", 5.69),
    ("C/C(=C\\c1ccccc1)c1csc(NC(=O)c2cccn2Cc2ccncc2)n1", "=", 6.10),
    ("O=C(Nc1nc(/C=C/c2ccccc2)cs1)c1cccn1Cc1ccncc1", "=", 5.98),
    ("O=C(Nc1nc([C@@H]2CCN(c3ccccc3)C2)cs1)c1cccn1Cc1ccncc1", "=", 6.07),
    ("CC(C)OC(C)(C)c1csc(NC(=O)c2cc(C(=O)N(C)C)cn2Cc2ccncc2)n1", "<", 4.60),
    ("O=C(Nc1nc(/C=C/c2ccc3c(c2)OCO3)cs1)c1cccn1Cc1ccncc1", "=", 6.47),
    ("O=C(Nc1nc(C2CC(c3ccccc3)C2)cs1)c1cccn1Cc1ccncc1 (centres unmarked)", "=", 6.54),
    ("O=C(Nc1nc(/C=C/Cc2ccccc2)cs1)c1cccn1CCCc1ccncc1", "=", 6.03),
    ("COc1cccc(CCc2csc(NC(=O)c3cccn3Cc3ccncc3)n2)c1", "=", 5.92),
]

====

tested on: IL-2-FL/Gaussia Luciferase; test: Dox Induced IL2-FL-Gluc Assay; format: cell-based; conditions: 24 hr, doxycycline-induced, 293FRT/TO cells; read-out: 24 hr Dox Inducible IL2FLGIuc 293FRT/TO: Mean IC50
pIC50: −log10 of the molar value.
Listing of entries alongside the reported pIC50.

# COMPOUND, LT_GT_EQ, pIC50
rows = [
    ("COc1cnc([C@@H]2C[C@H]2c2csc(NC(=O)c3cccn3Cc3ccncc3)n2)c(F)c1 [Compound A335]", "=", 6.12),
    ("COc1ccc([C@@H]2C[C@H]2c2csc(NC(=O)c3cccn3Cc3ccncc3)n2)nc1 [Compound A311]", "=", 6.06),
    ("CCN(C(=O)c1cccn1Cc1ccncc1)c1nccs1 [Compound B14]", "<", 4.60),
]
